The values you see were collected from paper PMC5454392.

# Measured On: T1, CaBdf1 BD1 (GST-tagged, wild-type) (Candida albicans (strain SC5314 / ATCC …, UniProt Q5A4W8))
# T1 chain: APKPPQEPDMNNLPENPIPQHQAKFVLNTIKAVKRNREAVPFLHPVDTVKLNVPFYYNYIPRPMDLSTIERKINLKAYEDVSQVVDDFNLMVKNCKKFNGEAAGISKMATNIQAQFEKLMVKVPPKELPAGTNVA
# Measurement Protocol: histone peptide array (Active Motif MODified), 1 uM GST-tagged bromodomain, anti-GST detection, normalized mean intensity
Square brackets hold non-standard residues; d marks the D form. Ends that are not written are not given here. Arg(Me2s) = CN=C(NC)NCCC[C@H](N)C(=O)O; pT = C[C@@H](OP(=O)(O)O)[C@H](N)C(=O)O; Lys(Me2) = CN(C)CCCC[C@H](N)C(=O)O; Me2a = not defined here
Listing of recorded binding score by entry.
Reported Property: binding score

>>> reported_value("AR(Me2a)[pT]K(Me)QTARKSTGGKAPRKQ (reading uncertain)")
0.00471
>>> reported_value("ARTKQTARKSTGGKAPRKQ (A R T K Q T A R K pS T G G Kac A P R K Q)")
0.0301
>>> reported_value("A[Arg(Me2s)]T[Lys(Me2)]QTARKSTGGKAPRKQ")
0.0029
